Test: Induction of erythroid differentiation in DBA/2J mouse Friend erythroleukemia cells assessed as concentration required for maximum proportion of benzidine positive cells after 6 days
Type: functional, Leukemia cell
# Activity >= 10 mM gives satisfied, anything below gives not satisfied

| mol | groupLabel |
| --- | --- |
| CC(=O)Nc1ccc(=O)[nH]c1 | not satisfied |
| CC(=O)Nc1cccc(NC(C)=O)n1 | not satisfied |
| CC(=O)NCc1ccccn1 | satisfied |
| CC(=O)Nc1cccc(=O)n1C | satisfied |

We next turn to a different molecule, shown below.
### Prompt Is the recorded value of Activity equal to or greater than 10 mM for this molecule? Cn1ccccc1=O
### Response not satisfied
